assayed.target: panel of more than 300 wild-type and mutant kinases (313 kinase panel) (Homo sapiens, UniProt Q13464)
experiment.notes: Kinase profiling in a biochemical assay panel (mobility shift assays and ELISA), %-inhibition at 1 μM; selectivity entropy
experimental.parameters: kinase ROCK1; 1 μM
Record form. Attribute: %-inhibition of ROCK1. Fill in for each entry.
Write down the numeric answer in % and omit the unit.

Problem: # input molecule: `CO[C@H]1C[C@@H]2CC[C@@H](C)[C@@](O)(O2)C(=O)C(=O)N2CCCC[C@H]2C(=O)O[C@H]([C@H](C)C[C@@H]2CC[C@@H](OCCO)[C@H](OC)C2)CC(=O)[C@H](C)/C=C(\C)[C@@H](O)[C@@H](OC)C(=O)[C@H](C)C[C@H](C)/C=C/C=C/C=C/1C` ; wanted: its %-inhibition of ROCK1
Result: -3.7

Problem: // query %-inhibition of ROCK1 value for entry `C[C@@H](Oc1cc(-c2cnn(C3CCNCC3)c2)cnc1N)c1c(Cl)ccc(F)c1Cl`
Result: 3.39

Problem: Requested field: %-inhibition of ROCK1. Item: COc1cc2nccc(Oc3ccc(NC(=O)C4(C(=O)Nc5ccc(F)cc5)CC4)cc3)c2cc1OC [cabozantinib]
Result: 1.28

---

assayed.target: panel of more than 300 wild-type and mutant kinases (313 kinase panel) (Homo sapiens)
experiment.notes: Kinase profiling in a biochemical assay panel (mobility shift assays and ELISA), %-inhibition at 1 μM; selectivity entropy
experimental.parameters: kinase p38δ; 1 μM
Field: %-inhibition of p38δ. Provide a value for each of the compounds that follow.
Numeric answer only, unit % assumed.

Problem: // map `CCCS(=O)(=O)Nc1ccc(F)c(C(=O)c2c[nH]c3ncc(-c4ccc(Cl)cc4)cc23)c1F` to recorded %-inhibition of p38δ (system: panel of more than 300 wild-type and mutant kinases (313 kinase panel) (Homo sapiens))
Result: 8

Problem: Item `COc1cc2c(Nc3ccc(Br)cc3F)ncnc2cc1OCC1CCN(C)CC1` with panel of more than 300 wild-type and mutant kinases (313 kinase panel) (Homo sapiens) - %-inhibition of p38δ?
Result: 0.0923

Problem: For the record `CC(=O)Nc1cccc(-n2c(=O)n(C3CC3)c(=O)c3c(Nc4ccc(I)cc4F)n(C)c(=O)c(C)c32)c1` , what value of %-inhibition of p38δ is listed for panel of more than 300 wild-type and mutant kinases (313 kinase panel) (Homo sapiens)?
Result: -2.7

Problem: Give %-inhibition of p38δ (panel of more than 300 wild-type and mutant kinases (313 kinase panel) (Homo sapiens)) of the following compound: `N#CC[C@H](C1CCCC1)n1cc(-c2ncnc3[nH]ccc23)cn1`
Result: 0.0923

Problem: Could you share what %-inhibition of p38δ was measured for `CNC(=O)c1cc(Oc2ccc(NC(=O)Nc3ccc(Cl)c(C(F)(F)F)c3)c(F)c2)ccn1` , tested on panel of more than 300 wild-type and mutant kinases (313 kinase panel) (Homo sapiens)?
Result: 2.22

Problem: Form field: %-inhibition of p38δ recorded for `Cc1ccc(Nc2nccc(N(C)c3ccc4c(C)n(C)nc4c3)n2)cc1S(N)(=O)=O` with panel of more than 300 wild-type and mutant kinases (313 kinase panel) (Homo sapiens) (enter value)
Result: -0.586

Problem: Reported %-inhibition of p38δ for panel of more than 300 wild-type and mutant kinases (313 kinase panel) (Homo sapiens), given `Cc1nc(Nc2ncc(C(=O)Nc3c(C)cccc3Cl)s2)cc(N2CCN(CCO)CC2)n1` ?
Result: 0.799

Problem: Enter reported %-inhibition of p38δ observed with panel of more than 300 wild-type and mutant kinases (313 kinase panel) (Homo sapiens) for `CO[C@H]1C[C@@H]2CC[C@@H](C)[C@@](O)(O2)C(=O)C(=O)N2CCCC[C@H]2C(=O)O[C@H]([C@H](C)C[C@@H]2CC[C@@H](OC(=O)C(C)(CO)CO)[C@H](OC)C2)CC(=O)[C@H](C)/C=C(\C)[C@@H](O)[C@@H](OC)C(=O)[C@H](C)C[C@H](C)/C=C/C=C/C=C/1C`
Result: -5.63

Problem: Please tell me: %-inhibition of p38δ of COc1cc2nccc(Oc3ccc(NC(=O)C4(C(=O)Nc5ccc(F)cc5)CC4)cc3)c2cc1OC [cabozantinib] , system panel of more than 300 wild-type and mutant kinases (313 kinase panel) (Homo sapiens)?
Result: 47

---

Hi there, I'd appreciate the recorded %-inhibition of FGFR4(N535K) for every entry that follows.
assayed.target: panel of more than 300 wild-type and mutant kinases (313 kinase panel) (Homo sapiens, UniProt P22455, N535K)
Sequence (P22455 22-802 N535K): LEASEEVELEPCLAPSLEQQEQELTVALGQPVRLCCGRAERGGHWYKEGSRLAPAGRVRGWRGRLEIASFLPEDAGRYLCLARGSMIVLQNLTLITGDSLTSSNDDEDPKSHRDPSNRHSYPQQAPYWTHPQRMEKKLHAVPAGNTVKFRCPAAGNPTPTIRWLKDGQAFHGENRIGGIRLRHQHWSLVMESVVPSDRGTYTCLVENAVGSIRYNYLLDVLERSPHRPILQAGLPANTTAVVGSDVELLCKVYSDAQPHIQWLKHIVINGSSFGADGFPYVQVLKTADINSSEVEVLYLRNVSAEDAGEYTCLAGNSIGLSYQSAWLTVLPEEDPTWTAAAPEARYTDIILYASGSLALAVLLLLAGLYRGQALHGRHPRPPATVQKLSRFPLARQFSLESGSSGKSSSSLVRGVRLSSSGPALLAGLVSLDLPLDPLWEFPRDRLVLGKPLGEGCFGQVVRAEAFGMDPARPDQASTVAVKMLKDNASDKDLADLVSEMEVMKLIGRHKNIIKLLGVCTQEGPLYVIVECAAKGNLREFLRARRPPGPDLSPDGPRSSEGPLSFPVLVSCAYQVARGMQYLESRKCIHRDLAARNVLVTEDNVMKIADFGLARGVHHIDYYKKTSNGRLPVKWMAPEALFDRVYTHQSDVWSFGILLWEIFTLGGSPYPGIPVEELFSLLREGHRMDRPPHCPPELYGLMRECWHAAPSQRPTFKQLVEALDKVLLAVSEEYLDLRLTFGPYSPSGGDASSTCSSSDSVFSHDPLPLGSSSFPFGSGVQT
experiment.notes: Kinase profiling in a biochemical assay panel (mobility shift assays and ELISA), %-inhibition at 1 μM; selectivity entropy
experimental.parameters: kinase FGFR4(N535K); compound at 1 μM
Reply numerically in %, unit not repeated.

Problem: Entry under review: `COc1cc2c(Nc3ccc(Br)cc3F)ncnc2cc1OCC1CCN(C)CC1` . Reported %-inhibition of FGFR4(N535K)?
Result: 81

Problem: Would you kindly share the measured %-inhibition of FGFR4(N535K) for `CC(=O)Nc1cccc(-n2c(=O)n(C3CC3)c(=O)c3c(Nc4ccc(I)cc4F)n(C)c(=O)c(C)c32)c1` ?
Result: -5.47

Problem: Please look up its %-inhibition of FGFR4(N535K): COc1cc2nccc(Oc3ccc(NC(=O)C4(C(=O)Nc5ccc(F)cc5)CC4)cc3)c2cc1OC [cabozantinib]
Result: 39

Problem: For the compound `COc1cc(Nc2c(C#N)cnc3cc(OCCCN4CCN(C)CC4)c(OC)cc23)c(Cl)cc1Cl` , what %-inhibition of FGFR4(N535K) is on record?
Result: 30

Problem: Given the compound `N#CC[C@H](C1CCCC1)n1cc(-c2ncnc3[nH]ccc23)cn1` , what is its reported %-inhibition of FGFR4(N535K)?
Result: 4.48

Problem: Which %-inhibition of FGFR4(N535K) is listed for `CO[C@H]1C[C@@H]2CC[C@@H](C)[C@@](O)(O2)C(=O)C(=O)N2CCCC[C@H]2C(=O)O[C@H]([C@H](C)C[C@@H]2CC[C@@H](OC(=O)C(C)(CO)CO)[C@H](OC)C2)CC(=O)[C@H](C)/C=C(\C)[C@@H](O)[C@@H](OC)C(=O)[C@H](C)C[C@H](C)/C=C/C=C/C=C/1C` ?
Result: 9

Problem: Entry under review: `O=S(=O)(c1cccc2cnccc12)N1CCCNCC1` . Reported %-inhibition of FGFR4(N535K)?
Result: 0.156

Problem: Entry `CC(C)(C)c1nc(-c2cccc(NS(=O)(=O)c3c(F)cccc3F)c2F)c(-c2ccnc(N)n2)s1` has what %-inhibition of FGFR4(N535K)?
Result: 8

Problem: Any idea what %-inhibition of FGFR4(N535K) was measured for `CCCS(=O)(=O)Nc1ccc(F)c(C(=O)c2c[nH]c3ncc(-c4ccc(Cl)cc4)cc23)c1F` ?
Result: 9

---

Could you please report measured IC50 for the items listed next?
Tested on: forty-four human cancer cell lines
experiment.notes: Cell proliferation assay (ATPlite, 72 hours) in the 44 cell line Oncolines panel
Type: cell-based
experimental.parameters: Homo sapiens, SHP77, cell line SHP-77; read-out: cell panel IC50, SHP-77
Could you give me the number in µM? Just the number is fine.

Problem: What IC50 value was documented for this molecule, `O=c1[nH]cc(F)c(=O)[nH]1` ?
Result: 22.8

Problem: What does the data say about its IC50? Entry: `CC(C)(C)c1nc(-c2cccc(NS(=O)(=O)c3c(F)cccc3F)c2F)c(-c2ccnc(N)n2)s1`
Result: 28.9

Problem: Form field: reported IC50 of `CC[C@]1(O)C[C@H]2CN(CCc3c([nH]c4ccccc34)[C@@](C(=O)OC)(c3cc4c(cc3OC)N(C=O)[C@H]3[C@@](O)(C(=O)OC)[C@H](OC(C)=O)[C@]5(CC)C=CCN6CC[C@]43[C@@H]65)C2)C1`
Result: 0.183

---

assayed.target: panel of more than 300 wild-type and mutant kinases (313 kinase panel) (Homo sapiens, UniProt P45985)
experiment.notes: Kinase profiling in a biochemical assay panel (mobility shift assays and ELISA), %-inhibition at 1 μM; selectivity entropy
experimental.parameters: kinase MAP2K4; compound at 1 μM
Record form. Attribute: %-inhibition of MAP2K4. Fill in for each entry.
The reply should contain only the number, in %.

Problem: Given the compound `CNC(=O)c1cc(Oc2ccc(NC(=O)Nc3ccc(Cl)c(C(F)(F)F)c3)c(F)c2)ccn1` , what is its reported %-inhibition of MAP2K4?
Result: 0.434

Problem: Fill in: %-inhibition of MAP2K4 of `C[C@@H](Oc1cc(-c2cnn(C3CCNCC3)c2)cnc1N)c1c(Cl)ccc(F)c1Cl` is ___
Result: -1.24

Problem: Item under review: `CC(=O)Nc1cccc(-n2c(=O)n(C3CC3)c(=O)c3c(Nc4ccc(I)cc4F)n(C)c(=O)c(C)c32)c1` . Reported %-inhibition of MAP2K4?
Result: 2.18

Problem: I have this compound here, `Cc1nc(Nc2ncc(C(=O)Nc3c(C)cccc3Cl)s2)cc(N2CCN(CCO)CC2)n1` , and I need its recorded %-inhibition of MAP2K4.
Result: -3.71

Problem: Item `CO[C@H]1C[C@@H]2CC[C@@H](C)[C@@](O)(O2)C(=O)C(=O)N2CCCC[C@H]2C(=O)O[C@H]([C@H](C)C[C@@H]2CC[C@@H](OC(=O)C(C)(CO)CO)[C@H](OC)C2)CC(=O)[C@H](C)/C=C(\C)[C@@H](O)[C@@H](OC)C(=O)[C@H](C)C[C@H](C)/C=C/C=C/C=C/1C` has what recorded %-inhibition of MAP2K4?
Result: 8.51

Problem: Given the compound `CS(=O)(=O)CCNCc1ccc(-c2ccc3ncnc(Nc4ccc(OCc5cccc(F)c5)c(Cl)c4)c3c2)o1` , what is its reported %-inhibition of MAP2K4?
Result: 0.409
